EXPERIMENT NOTES: Phase 1 study (NCT04249843): plasma pharmacokinetics of Compound A
Format: in vivo, human
CONDITIONS USED: human, plasma, oral, 40 mg, 40 mg QD, C2D1, patient 201-010
READOUT LABEL: Cmax (ng/mL)
// units = ng/mL; emit number, no label

Requested field: Cmax. Item: O=C1CCc2c(Oc3ccc4c(c3)[C@H]3[C@H](NC(=O)Nc5cc(F)c(F)cc5F)[C@H]3O4)ccnc2N1 2410

* * *

EXPERIMENT NOTES: Phase 1 study (NCT04249843): plasma pharmacokinetics of Compound A
Assay type: in vivo, human
CONDITIONS USED: human, plasma, oral, 60 mg, C1D1, patient 101-011 (excluded from C1D1 summary statistics, AQL samples)
READOUT LABEL: Cmax (ng/mL)
// units = ng/mL; emit number, no label

Requested field: Cmax. Item: O=C1CCc2c(Oc3ccc4c(c3)[C@H]3[C@H](NC(=O)Nc5cc(F)c(F)cc5F)[C@H]3O4)ccnc2N1 878
